B1: CPEB3 Ribozyme (parent)
chain: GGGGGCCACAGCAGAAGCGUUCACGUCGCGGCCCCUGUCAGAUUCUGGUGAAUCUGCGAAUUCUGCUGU

variants of: B1; test: self-cleavage, relative activity (ratio to wild type); higher = more cleavage; co-transcriptional

[
  {
    "Variant string": "A59C U64C",
    "self-cleavage": 0.586
  },
  {
    "Variant string": "A52U G58A",
    "self-cleavage": 0.939
  },
  {
    "Variant string": "G19C C24A",
    "self-cleavage": 0.183
  },
  {
    "Variant string": "C45A C57A",
    "self-cleavage": 0.359
  },
  {
    "Variant string": "A8U A52C",
    "self-cleavage": 0.975
  },
  {
    "Variant string": "C24G G28U",
    "self-cleavage": 0.13
  },
  {
    "Variant string": "U53G U69A",
    "self-cleavage": 0.982
  },
  {
    "Variant string": "C24U C35G",
    "self-cleavage": 0.202
  },
  {
    "Variant string": "C29A U43G",
    "self-cleavage": 0.364
  },
  {
    "Variant string": "U26C C35A",
    "self-cleavage": 0.254
  },
  {
    "Variant string": "C18U G28C",
    "self-cleavage": 0.174
  },
  {
    "Variant string": "C9G C34A",
    "self-cleavage": 0.953
  },
  {
    "Variant string": "C29G U49C",
    "self-cleavage": 0.544
  },
  {
    "Variant string": "G48A U69G",
    "self-cleavage": 1.07
  },
  {
    "Variant string": "G11C C33U",
    "self-cleavage": 0.827
  },
  {
    "Variant string": "G31U A42U",
    "self-cleavage": 0.485
  },
  {
    "Variant string": "G2U G17U",
    "self-cleavage": 0.039
  },
  {
    "Variant string": "C9U A52G",
    "self-cleavage": 0.673
  },
  {
    "Variant string": "U49C A51G",
    "self-cleavage": 1.03
  },
  {
    "Variant string": "C32A C35U",
    "self-cleavage": 0.333
  },
  {
    "Variant string": "U21C U55G",
    "self-cleavage": 0.723
  },
  {
    "Variant string": "C7G C22A",
    "self-cleavage": 0.104
  }
]
